# measured.target: Retinoic acid receptor RXR-alpha (Homo sapiens)
# Sequence (P19793 whole entry): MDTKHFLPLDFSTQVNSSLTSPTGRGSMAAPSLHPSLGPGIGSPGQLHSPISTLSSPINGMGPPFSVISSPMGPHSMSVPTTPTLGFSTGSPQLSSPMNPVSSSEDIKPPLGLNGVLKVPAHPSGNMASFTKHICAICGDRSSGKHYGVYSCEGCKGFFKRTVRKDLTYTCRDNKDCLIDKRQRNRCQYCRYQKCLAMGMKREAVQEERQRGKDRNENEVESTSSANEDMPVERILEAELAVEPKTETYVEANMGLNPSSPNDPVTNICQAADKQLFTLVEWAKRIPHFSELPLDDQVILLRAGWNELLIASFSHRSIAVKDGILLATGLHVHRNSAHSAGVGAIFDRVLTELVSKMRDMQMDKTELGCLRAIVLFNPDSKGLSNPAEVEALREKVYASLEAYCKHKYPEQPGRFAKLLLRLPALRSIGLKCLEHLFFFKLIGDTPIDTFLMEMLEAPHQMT
# assay.info: Binding affinity to human RXR-alpha LBD incubated for 2 hrs by tryptophan fluorescence quenching assay

smiles.text: CCCCCCOc1cc2c(cc1N(C)c1ncc(C(=O)O)cn1)C(C)(C)CCC2(C)C
measured.target: Retinoic acid receptor RXR-alpha (Homo sapiens)
units: nM
Kd: 260

* * *

# measured.target: Retinoic acid receptor RXR-alpha (Homo sapiens)
# Sequence (P19793 whole entry): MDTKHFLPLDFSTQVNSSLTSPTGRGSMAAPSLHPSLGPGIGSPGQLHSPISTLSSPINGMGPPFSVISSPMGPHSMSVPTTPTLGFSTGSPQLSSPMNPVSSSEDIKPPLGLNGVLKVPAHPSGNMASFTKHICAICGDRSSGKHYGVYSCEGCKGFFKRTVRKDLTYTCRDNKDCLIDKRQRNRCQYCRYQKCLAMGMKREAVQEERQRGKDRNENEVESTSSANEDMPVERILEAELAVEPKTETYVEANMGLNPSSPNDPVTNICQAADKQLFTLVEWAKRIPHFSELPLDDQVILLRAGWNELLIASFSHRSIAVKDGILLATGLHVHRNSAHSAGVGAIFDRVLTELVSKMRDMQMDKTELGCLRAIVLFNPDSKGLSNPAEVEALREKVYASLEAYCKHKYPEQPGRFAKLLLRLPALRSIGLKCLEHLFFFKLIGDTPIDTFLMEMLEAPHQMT
# assay.info: Binding affinity to human RXR-alpha by ITC analysis
pKd: −log10 of the molar value.
parameter.measured: pKd

smiles.text: CCCCCCOc1cc2c(cc1N(C)c1ncc(C(=O)O)cn1)C(C)(C)CCC2(C)C
result.number: 5.87
